Ref: ChEMBL document CHEMBL1955783

- protocol: Plasma protein binding in human
- Type: ADME, cell-free
- condition-context: read-out: PPB (converted)
property-label: fraction unbound

In: If you can, please state the reported fraction unbound value of CC(C)c1cc(C(C)(C)C)cc(-c2ccc(F)cc2)c1CO .
Out: 0.1

* * *

- Test system: NCI-H1299
- protocol: Cytotoxicity against human NCI-H1299 cells expressing VIPR1 in presence of 2% serum
- Format: functional, cell-based
Activity calls are given as the source filed them. The rule behind the calls is not given here.
property-label: Activity

Please review the entries below; each comes with its answer.
COc1ccc(CCC(=O)Nc2sc3c(c2C#N)CCCC3)cc1 | inactive
Cc1ccc(CCC(=O)Nc2sc3c(c2C#N)CCCC3)cc1 | inactive
N#Cc1c(NC(=O)C2CCCC2)sc2c1CCCC2 | inactive
CC(C)C(=O)Nc1sc2c(c1C#N)CCCC2 | inactive
N#Cc1c(NC(=O)Cc2ccccc2)sc2c1CCCC2 | inactive
CC(=O)Nc1sc2c(c1C#N)CCCC2 | inactive
N#Cc1c(NC(=O)Cc2cc3ccccc3[nH]2)sc2c1CCCC2 | inactive
N#Cc1c(NC(=O)CCc2ccc(Cl)cc2)sc2c1CCCC2 | inactive
N#Cc1c(NC(=O)C2CCC2)sc2c1CCCC2 | inactive
N#Cc1c(NC(=O)C2CC2)sc2c1CCCC2 | inactive

In: If you can, please state the reported Activity value of N#Cc1c(NC(=O)Cc2cc3ccccc3s2)sc2c1CCCC2 .
Out: inactive

In: Also need COc1cccc(CCC(=O)Nc2sc3c(c2C#N)CCCC3)c1 , thanks.
Out: inactive

* * *

Overview of recorded log10 of IC50 for various compounds
- tested-on: UniProt:P30083
- Sequence (P30083 whole entry): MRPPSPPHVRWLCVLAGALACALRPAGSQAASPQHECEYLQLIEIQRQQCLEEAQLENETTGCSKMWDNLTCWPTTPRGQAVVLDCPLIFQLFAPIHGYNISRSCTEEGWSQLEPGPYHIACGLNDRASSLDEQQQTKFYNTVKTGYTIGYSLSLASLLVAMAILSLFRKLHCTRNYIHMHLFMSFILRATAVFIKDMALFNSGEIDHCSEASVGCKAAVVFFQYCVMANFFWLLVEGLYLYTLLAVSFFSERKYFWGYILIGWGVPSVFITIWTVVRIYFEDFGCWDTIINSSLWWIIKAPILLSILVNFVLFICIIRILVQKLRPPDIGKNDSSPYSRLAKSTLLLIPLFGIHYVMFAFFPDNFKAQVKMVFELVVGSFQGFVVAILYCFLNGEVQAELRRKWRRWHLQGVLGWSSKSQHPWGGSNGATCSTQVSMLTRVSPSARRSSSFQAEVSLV
- protocol: Antagonist activity at vasoactive intestinal peptide receptor 1 in rat RKE cells assessed as inhibition of VIP-induced intracellular cAMP accumulation incubated for 15 mins prior to VIP-stimulation measured after 30 mins by HTRF assay
// do not treat as linear: log10 of IC50, unit nM

Please review the entries below; each comes with its answer.
N#Cc1c(NC(=O)C2CCCCC2)sc2c1CCCC2 | 2.67
CC(C)c1cc(C(C)(C)C)cc(-c2ccc(F)cc2)c1CO | 2.87
CC(C)C(=O)Nc1sc2c(c1C#N)CCCC2 | 3.53
N#Cc1c(NC(=O)Cc2cc3ccccc3s2)sc2c1CCCC2 | 3.28

Here's the next entry for you.
In: If you can, please state the reported log10 of IC50 value of N#Cc1c(NC(=O)COc2ccccc2)sc2c1CCCC2 .
Out: 3.96
